Assay: Pharmacokinetics in vivo in rats
Set-up: species or system SD rats
Settings: SD, rat, plasma; 3 mg/kg oral administration in rats (Table 2A)
Value Type: half-life (h)
Report only the number, with the unit h understood.

CCOc1ccc(-c2c(F)cc(NC(=O)N3CCC(C(C)(C)C)CC3)cc2-c2nn[nH]n2)cn1 = 3.37

The measured half-life associated with `CCOc1ccc(-c2ccc(NC(=O)N[C@H]3CC[C@H](C)CC3)cc2-c2nn[nH]n2)cn1` reads 3.63

###

Test: Pharmacokinetics in vivo in rats
Design: species or system SD rats
Settings: SD, rat, plasma; 3 mg/kg oral administration in rats (Table 2A); read-out: Area under the curve of plasma concentration-time (AUC)
Value Type: AUC (ng·h/mL)
Report only the number, with the unit ng·h/mL understood.

CCOc1ccc(-c2c(F)cc(NC(=O)N3CCC(C(C)(C)C)CC3)cc2-c2nn[nH]n2)cn1 = 3130

The measured AUC associated with `CCOc1ccc(-c2ccc(NC(=O)N[C@H]3CC[C@H](C)CC3)cc2-c2nn[nH]n2)cn1` reads 7480

###

Assay: Intraocular and retinal drug concentration in rats after eye drops (HPLC)
Format: in vivo
Conditions: both sexes, SD, rat, cornea, topical, 10 μL of 2% solution per eye, twice a day for 7 days, 1 h after administration, 2% eye drops twice a day, read-out: Content of test compound in Cornea
Text: 2.1 Experimental aminals: SPF grade male SD rats, weighed 180-200 g, were used and adaptively fed for one week. 2.2 Drugs and reagents: Compound 71 and Compound 8; sodium chloride injection (Guangxi Yuyuan Pharmaceutical Co., Ltd.); sterile filter having 0.22 μm pore size (Millex). 2.3 Experimental animal grouping: the animals were randomly divided into 3 groups (6 rats per group) of a negative control group (normal saline), a Compound 71 group and a Compound 8 group. […]
Value Type: concentration at 1 h after the second eye drop on Day 7

CCOc1ccc(-c2c(F)cc(NC(=O)N3CCC(C(C)(C)C)CC3)cc2-c2nn[nH]n2)cn1 = 101000 ng/g

Please look at the following compound next.
The measured concentration at 1 h after the second eye drop on Day 7 associated with `CCOc1ccc(-c2ccc(NC(=O)N[C@H]3CC[C@H](C)CC3)cc2-c2nn[nH]n2)cn1` reads 93100 ng/g

###

Assay: Drug concentration in rat retinas after intraocular injection (HPLC)
Assay type: in vivo, Wistar rats
Details: male, Wistar, rat, retina, topical or ocular, 5 μL of 0.5% solution per eye, intraocular injection of 5 μL of 0.5% per eye, two-compartment model, read-out: Distribution half-life (converted)
Value Type: half-life

The measured half-life associated with `CCOc1ccc(-c2ccc(NC(=O)N[C@H]3CC[C@H](C)CC3)cc2-c2nn[nH]n2)cn1` reads 6.97 h

###

Biological target: CYP2D6 (Homo sapiens, UniProt P10635)
Construct: The substrate method was used to determine the activity of human liver microsomal CYP450 enzyme; from tissue; host or cells: human liver microsomes
Sequence (P10635 whole entry): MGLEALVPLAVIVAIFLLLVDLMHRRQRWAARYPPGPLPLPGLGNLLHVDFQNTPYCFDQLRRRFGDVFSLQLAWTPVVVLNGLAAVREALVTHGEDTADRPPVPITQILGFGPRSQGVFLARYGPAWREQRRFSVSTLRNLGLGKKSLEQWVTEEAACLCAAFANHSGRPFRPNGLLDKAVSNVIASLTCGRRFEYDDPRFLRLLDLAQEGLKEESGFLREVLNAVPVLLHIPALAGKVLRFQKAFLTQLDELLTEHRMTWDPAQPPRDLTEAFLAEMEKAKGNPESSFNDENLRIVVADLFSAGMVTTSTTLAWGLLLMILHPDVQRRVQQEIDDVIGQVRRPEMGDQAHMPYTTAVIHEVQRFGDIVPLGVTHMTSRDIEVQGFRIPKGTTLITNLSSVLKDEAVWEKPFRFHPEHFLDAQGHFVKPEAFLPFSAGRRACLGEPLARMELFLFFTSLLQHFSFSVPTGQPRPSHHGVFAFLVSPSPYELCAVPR
Experiment: CYP450 inhibition in human liver microsomes (substrate method, LC-MS/MS)
Format: in vitro ADME
Conditions: read-out: CYP inhibition IC50 [μM], 2D6
Value Type: IC50 (µM)
Report only the number, with the unit µM understood.

The measured IC50 associated with CCOc1ccc(-c2c(F)cc(NC(=O)N3CCC(C(C)(C)C)CC3)cc2-c2nn[nH]n2)cn1 [Compound 8] reads 50
